# System: Klebsiella pneumoniae
# Assay Notes: Antibacterial activity against extended-spectrum beta-lactamase producin Klebsiella pneumoniae 12-4 after 18 to 24 hrs by standard twofold serial dilution method
# Assay type: functional
Friendly reminder: MIC below 8 µg/mL is MET, at or above is NOT MET.

{"Molecule": "NC[C@@H]1/C(=N\\OCc2ccccc2)CN1c1nc2c(cc1F)c(=O)c(C(=O)O)cn2[C@@H]1C[C@@H]1F", "Assigned Label": "NOT MET"}
{"Molecule": "O=C(O)c1cn(C2CC2)c2cc(N3CCNCC3)c(F)cc2c1=O [CIPROFLOXACIN]", "Assigned Label": "MET"}
{"Molecule": "CO/N=C1/CCN(c2cc3c(cc2F)c(=O)c(C(=O)O)cn3[C@@H]2C[C@@H]2F)CC1N (stereo partly drawn)", "Assigned Label": "NOT MET"}

Q: Lab log: compare recorded MIC with 8 µg/mL; is it strictly lower for NCC1CN(c2nc3c(cc2F)c(=O)c(C(=O)O)cn3[C@@H]2C[C@@H]2F)C/C1=N/OCc1ccccc1 (stereo partly drawn) ?
Ans: NOT MET

Q: Hi there! Is MIC for CO/N=C1/CN(c2nc3c(cc2F)c(=O)c(C(=O)O)cn3[C@@H]2C[C@@H]2F)[C@@H]1CN below 8 µg/mL, do you know?
Ans: NOT MET

Q: Consider COc1c(N2C[C@@H]3CCCN[C@@H]3C2)c(F)cc2c(=O)c(C(=O)O)cn(C3CC3)c12 [MOXIFLOXACIN] . Does its MIC lie strictly below 8 µg/mL?
Ans: MET

---

Some compounds, each annotated with its measured log10 MIC.
# System: Klebsiella pneumoniae
# Assay Notes: Antibacterial activity against Klebsiella pneumoniae 12-1 after 18 to 24 hrs by standard twofold serial dilution method
# Type: functional
The base-10 logarithm of MIC, taken with MIC in µg/mL, is what appears here.

{"Compound": "CCO/N=C1/CN(c2nc3c(cc2F)c(=O)c(C(=O)O)cn3[C@@H]2C[C@@H]2F)[C@H]1CN", "Study Target": "Klebsiella pneumoniae", "log10 MIC": -0.30}

Q: Observed log10 MIC on Klebsiella pneumoniae for CO/N=C1/CCN(c2nc3c(cc2F)c(=O)c(C(=O)O)cn3[C@@H]2C[C@@H]2F)CC1N (stereo not given in full) , please.
Ans: 0.30

Q: Observed log10 MIC on Klebsiella pneumoniae for CO/N=C1/CN(c2nc3c(cc2F)c(=O)c(C(=O)O)cn3[C@@H]2C[C@@H]2F)[C@@H]1CN , please.
Ans: 0.00

Q: Value wanted: log10 MIC (Klebsiella pneumoniae) of entry CCO/N=C1/CN(c2c(F)cc3c(=O)c(C(=O)O)cn([C@@H]4C[C@@H]4F)c3c2OC)CC1CN (stereo not given in full)
Ans: 0.60

Q: Observed log10 MIC on Klebsiella pneumoniae for CO/N=C1/CCN(c2c(F)cc3c(=O)c(C(=O)O)cn([C@@H]4C[C@@H]4F)c3c2Cl)CC1N (stereo not given in full) , please.
Ans: 0.30

Q: Query the reported log10 MIC for Klebsiella pneumoniae; item: CCO/N=C1/CN(c2nc3c(cc2F)c(=O)c(C(=O)O)cn3[C@@H]2C[C@@H]2F)CC1CN (stereo not given in full)
Ans: -1.52

Q: What value of log10 MIC on Klebsiella pneumoniae does C[C@H]1COc2c(N3CCN(C)CC3)c(F)cc3c(=O)c(C(=O)O)cn1c23.C[C@H]1COc2c(N3CCN(C)CC3)c(F)cc3c(=O)c(C(=O)O)cn1c23.O have?
Ans: -1.22

Q: Look up log10 MIC with Klebsiella pneumoniae for this compound: CO/N=C1/CN(c2c(F)cc3c(=O)c(C(=O)O)cn([C@@H]4C[C@@H]4F)c3c2Cl)CC1CN (stereo not given in full)
Ans: -0.60

Q: Recorded log10 MIC for CCO/N=C1/CN(c2cc3c(cc2F)c(=O)c(C(=O)O)cn3[C@@H]2C[C@@H]2F)[C@@H]1CN with Klebsiella pneumoniae, please?
Ans: -0.60

Q: Find the measured log10 MIC: item NC[C@@H]1/C(=N\OCc2ccccc2)CN1c1nc2c(cc1F)c(=O)c(C(=O)O)cn2[C@@H]1C[C@@H]1F , target or system Klebsiella pneumoniae.
Ans: 0.00

Q: Identify the measured log10 MIC of CO/N=C1/CCN(c2cc3c(cc2F)c(=O)c(C(=O)O)cn3[C@@H]2C[C@@H]2F)CC1N (stereo not given in full) for Klebsiella pneumoniae.
Ans: 0.30

Q: // fetch Klebsiella pneumoniae log10 MIC for NCC1CN(c2c(F)cc3c(=O)c(C(=O)O)cn([C@@H]4C[C@@H]4F)c3c2Cl)C/C1=N/OCc1ccccc1 (stereo not given in full)
Ans: 0.30

Q: Lookup: log10 MIC / Klebsiella pneumoniae / NCC1CN(c2cc3c(cc2F)c(=O)c(C(=O)O)cn3[C@@H]2C[C@@H]2F)C/C1=N/OCc1ccccc1 (stereo not given in full)
Ans: -1.22

Q: // map CO/N=C1/CN(c2nc3c(cc2F)c(=O)c(C(=O)O)cn3[C@@H]2C[C@@H]2F)[C@H]1CN to recorded log10 MIC (system: Klebsiella pneumoniae)
Ans: -0.60

Q: Hi! What's the reported log10 MIC for CCO/N=C1/CN(c2cc3c(cc2F)c(=O)c(C(=O)O)cn3[C@@H]2C[C@@H]2F)[C@H]1CN on Klebsiella pneumoniae?
Ans: -1.22

Q: What log10 MIC appears in the records for this compound with Klebsiella pneumoniae? O=C(O)c1cn(C2CC2)c2cc(N3CCNCC3)c(F)cc2c1=O
Ans: -0.90

Q: Given the entry CO/N=C1/CN(c2cc3c(cc2F)c(=O)c(C(=O)O)cn3[C@@H]2C[C@@H]2F)[C@H]1CN , what log10 MIC was observed with Klebsiella pneumoniae?
Ans: -0.90

Q: Please provide the recorded log10 MIC for NCC1CN(c2nc3c(cc2F)c(=O)c(C(=O)O)cn3[C@@H]2C[C@@H]2F)C/C1=N/OCc1ccccc1 (stereo not given in full) , tested on Klebsiella pneumoniae.
Ans: -1.52

Q: Any idea what log10 MIC came out for CO/N=C1/CN(c2c(F)cc3c(=O)c(C(=O)O)cn([C@@H]4C[C@@H]4F)c3c2OC)[C@H]1CN on Klebsiella pneumoniae?
Ans: -0.30

Q: So what log10 MIC did CCO/N=C1/CN(c2c(F)cc3c(=O)c(C(=O)O)cn([C@@H]4C[C@@H]4F)c3c2Cl)CC1CN (stereo not given in full) get with Klebsiella pneumoniae?
Ans: -0.30

Q: # get_value(readout= log10 MIC, system= Klebsiella pneumoniae) for CO/N=C1/CN(c2cc3c(cc2F)c(=O)c(C(=O)O)cn3[C@@H]2C[C@@H]2F)[C@@H]1CN
Ans: 0.00

Q: Find log10 MIC (Klebsiella pneumoniae) for the entry CO/N=C1/CCN(c2c(F)cc3c(=O)c(C(=O)O)cn([C@@H]4C[C@@H]4F)c3c2OC)CC1N (stereo not given in full)
Ans: -0.60
